Reference source: patent US20050192264A1

- experiment description: Equilibrium solubility of triamcinolone acetonide in various media (HPLC)
- Format: physicochemical
- condition label: distilled water, water, thermodynamic from solid; read-out: Triamcinolone acetonide conc. (equilibrium solubility)
measurement name: solubility thermodynamic (µg/mL)
Report only the number, with the unit µg/mL understood.

Please report the measured solubility thermodynamic for CC1(C)O[C@@H]2CC3C4CCC5=CC(=O)C=CC5(C)[C@@]4(F)C(O)CC3(C)C2(C(=O)CO)O1 (stereo partly shown) [triamcinolone acetonide] 8.8

###

- experiment description: Equilibrium solubility of triamcinolone acetonide in various media (HPLC)
- Format: physicochemical
- condition label: 30% Acetonide, aqueous with cosolvent or surfactant or cyclodextrin, thermodynamic from solid; read-out: Triamcinolone acetonide conc. (equilibrium solubility)
measurement name: solubility thermodynamic (µg/mL)
Report only the number, with the unit µg/mL understood.

Please report the measured solubility thermodynamic for CC1(C)O[C@@H]2CC3C4CCC5=CC(=O)C=CC5(C)[C@@]4(F)C(O)CC3(C)C2(C(=O)CO)O1 (stereo partly shown) [triamcinolone acetonide] 128
